Test system: ZFP-FokI 4-residue ZC linker (synthetic)
procedure-text: cleavage_in_vitro
quantity: activity

[[record]]
sequence_entry = "CTAGCATTATCCGAGTTCACACACAACTCGGATAATGCTAG (double strand) [7 bp separation]"
result = "80 % cleaved"

[[record]]
sequence_entry = "CTAGCATTATCCGAGTTCACCACCAACCACACCAACTCGGATAATGCTAG (double strand) [16 bp separation]"
result = "100 % cleaved"

[[record]]
sequence_entry = "CTAGGCATTATCCGAGTTCACCACAACTCGGATAATGACTAG (double strand) [6 bp separation]"
result = "95 % cleaved"

[[record]]
sequence_entry = "CTAGCATTATCCGAGTTCACCACACAACTCGGATAATGCTAG (double strand) [8 bp separation]"
result = "8 % cleaved"

[[record]]
sequence_entry = "CTAGCATTATCCGAGTTCAACCACCAACCACACCAACACCACCAACTCGGATAATGCTAG (double strand) [26 bp separation]"
result = "35 % cleaved"

[[record]]
sequence_entry = "CTAGCATTATCCGAGTTCACCACCAACCACACAACTCGGATAATGCTAG (double strand) [15 bp separation]"
result = "97 % cleaved"

[[record]]
sequence_entry = "CTAGCATTATCCGAGTTCAACCACCAACCACACCAACACAACTCGGATAATGCTAG (double strand) [22 bp separation]"
result = "5 % cleaved"


----------
System: ZFP-FokI 10-residue ZC linker (synthetic)
procedure-text: cleavage_in_vitro
# activity per record follows
quantity: activity (% cleaved)

[[record]]
sequence_entry = "CTAGCATTATCCGAGTTACACAACTCGGATAATGCTAG (double strand) [4 bp separation]"
scale_unit = "% cleaved"
result_number = 4

[[record]]
sequence_entry = "CTAGCATTATCCGAGTTCACCACCAACCACACAACTCGGATAATGCTAG (double strand) [15 bp separation]"
scale_unit = "% cleaved"
result_number = 88

[[record]]
sequence_entry = "CTAGGCATTATCCGAGTTCACCACAACTCGGATAATGACTAG (double strand) [6 bp separation]"
scale_unit = "% cleaved"
result_number = 76

[[record]]
sequence_entry = "CTAGCATTATCCGAGTTCACCACACAACTCGGATAATGCTAG (double strand) [8 bp separation]"
scale_unit = "% cleaved"
result_number = 63


----------
Test system: ZFP-FokI 4-residue ZC linker (synthetic)
procedure-text: cleavage_in_vitro
# activity per record follows
quantity: activity (% cleaved)

[[record]]
sequence_entry = "CTAGCATTATCCGAGTTCACCACCAACACAACTCGGATAATGCTAG (double strand) [12 bp separation]"
quantity = "activity"
result_number = 22

[[record]]
sequence_entry = "CTAGCATTATCCGAGTTCAACCACCAACCACACCAACTCGGATAATGCTAG (double strand) [17 bp separation]"
quantity = "activity"
result_number = 77

[[record]]
sequence_entry = "CTAGCATTATCCGAGTTCACACAACTCGGATAATGCTAG (double strand) [5 bp separation]"
quantity = "activity"
result_number = 92

[[record]]
sequence_entry = "CTAGCATTATCCGAGTTCACACACACAACTCGGATAATGCTAG (double strand) [9 bp separation]"
quantity = "activity"
result_number = 23

